target: BRD4 adjoined to nanoluciferase (Nluc) (Homo sapiens, UniProt O60885+Q96SW2); construct: expressed in transfected cells; experiment: BRD4 Dual Luciferase Assay; format: cell-based; conditions: read-out: BRD4 max degradation(%) Dual Luciferase;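 further: transduced reporter cells exposed to compound for 4 h, then Nluc and Fluc luminescence read, each normalized to DMSO controls and expressed as Nluc/Fluc ratio per well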
Recorded Dmax, one value per entry.

[
  {
    "Compound": "Cc1cnc(Nc2ccc(N3CCN(C(=O)CCCNC(=O)COc4cccc5c4C(=O)N(C4CCC(=O)NC4=O)C5=O)CC3)cc2)nc1Nc1cccc(S(=O)(=O)NC(C)(C)C)c1 (centres unmarked)",
    "Unit descriptor": "%",
    "Censoring sign": "<",
    "Dmax": 10
  },
  {
    "Compound": "Cc1sc2c(c1C)C(c1ccc(Cl)cc1)=N[C@@H](CC(=O)NCCOCCOCCOc1cccc3c1C(=O)N(C1CCC(=O)NC1=O)C3=O)c1nnc(C)n1-2 (some centres unmarked)",
    "Unit descriptor": "%",
    "Censoring sign": "<",
    "Dmax": 10
  },
  {
    "Compound": "Cc1sc2c(c1C)C(c1ccc(Cl)cc1)=N[C@@H](CC(=O)NCCCCCCNC(=O)c1ccc3c(c1)C(=O)N(C1CCC(=O)NC1=O)C3=O)c1nnc(C)n1-2 (some centres unmarked)",
    "Unit descriptor": "%",
    "Censoring sign": "=",
    "Dmax": 18
  },
  {
    "Compound": "Cc1sc2c(c1C)C(c1ccc(Cl)cc1)=N[C@@H](CC(=O)NCCCCNC(=O)CNc1cccc3c1CN(C1CCC(=O)NC1=O)C3=O)c1nnc(C)n1-2 (some centres unmarked)",
    "Unit descriptor": "%",
    "Censoring sign": "=",
    "Dmax": 12
  },
  {
    "Compound": "Cc1sc2c(c1C)C(c1ccc(Cl)cc1)=N[C@@H](CC(=O)NCCCCCCOc1cccc3c1C(=O)N(C1CCC(=O)NC1=O)C3=O)c1nnc(C)n1-2 (some centres unmarked)",
    "Unit descriptor": "%",
    "Censoring sign": "=",
    "Dmax": 19
  },
  {
    "Compound": "Cc1sc2c(c1C)C(c1ccc(Cl)cc1)=N[C@@H](CC(=O)NCCCCOc1cccc3c1C(=O)N(C1CCC(=O)NC1=O)C3=O)c1nnc(C)n1-2 (some centres unmarked)",
    "Unit descriptor": "%",
    "Censoring sign": ">",
    "Dmax": 5
  },
  {
    "Compound": "Cc1sc2c(c1C)C(c1ccc(Cl)cc1)=N[C@@H](CC(=O)NCCOCCOc1cccc3c1C(=O)N(C1CCC(=O)NC1=O)C3=O)c1nnc(C)n1-2 (some centres unmarked)",
    "Unit descriptor": "%",
    "Censoring sign": "=",
    "Dmax": 30
  },
  {
    "Compound": "Cc1c(CC#N)sc2c1C(c1ccc(Cl)cc1)=N[C@@H](CC(=O)NCCCCNC(=O)COc1cccc3c1C(=O)N(C1CCC(=O)NC1=O)C3=O)c1nnc(C)n1-2 (some centres unmarked)",
    "Unit descriptor": "%",
    "Censoring sign": ">",
    "Dmax": 5
  },
  {
    "Compound": "CC[C@@H]1C(=O)N(C)c2cnc(Nc3ccc(C(=O)NCCCOCCOCCOCCCNC(=O)COc4cccc5c4C(=O)N(C4CCC(=O)NC4=O)C5=O)cc3OC)nc2N1C1CCCC1 (some centres unmarked)",
    "Unit descriptor": "%",
    "Censoring sign": "=",
    "Dmax": 25
  },
  {
    "Compound": "Cc1sc2c(c1C)C(c1ccc(Cl)cc1)=N[C@@H](CC(=O)NCCCCCCCC(=O)Nc1cccc3c1CN(C1CCC(=O)NC1=O)C3=O)c1nnc(C)n1-2 (some centres unmarked)",
    "Unit descriptor": "%",
    "Censoring sign": "<",
    "Dmax": 10
  },
  {
    "Compound": "Cc1cnc(Nc2ccc(N3CCN(C(=O)CCC(=O)NCCCOCCOCCOCCCNC(=O)COc4cccc5c4C(=O)N(C4CCC(=O)NC4=O)C5=O)CC3)cc2)nc1Nc1cccc(S(=O)(=O)NC(C)(C)C)c1 (centres unmarked)",
    "Unit descriptor": "%",
    "Censoring sign": "=",
    "Dmax": 24
  }
]

All values here come from patent US10464925B2.
